molecular target: cyno PRLR on Baf3-cyPRLR cells (cyno); assay: cell-based or functional assay
Property: Baf3-cyPRLR proliferation IC50; scope: individual binders
Just the number in µg/mL, nothing appended.

1) Ab45 (antibody, human IgG1, kappa, V domains shown, humanized from Ab8; G1; also called Ab3 HC.1 and Ab3 LC.1a) VH: EVQLVQSGAEVKKPGASVKVSCKASGYTFTDYNIHWVRQAPGQGLEWMGYIYPNNDGTGYNQKFKSRVTMTTDTSTSTAYMELRSLRSDDTAVYYCARGDGNYVGDMDYWGQGTTVTVSS VL: DIQMTQSPSSLSASVGDRVTITCRASENIYSYLAWYQQKPGKPPKLLVYNAKTLAEGVPSRFSGSGSGTDFTLTISSLQPEDFATYYCQHHYATPFTFGQGTKLEIKR	2.24

Turning now to a further record.
Reported Baf3-cyPRLR proliferation IC50 ( Ab47 (antibody, human IgG1, kappa, V domains shown, humanized from Ab8; G1; also called Ab3 HC.1a and Ab3 LC.1) VH: EVQLVQSGAEVKKPGASVKVSCKASGYTFTDYNIHWVRQAPGQGLEWIGYIYPNNDGTGYNQKFKSRATLTVDNSTSTAYMELRSLRSDDTAVYYCARGDGNYVGDMDYWGQGTTVTVSS VL: DIQMTQSPSSLSASVGDRVTITCRASENIYSYLAWYQQKPGKAPKLLIYNAKTLAEGVPSRFSGSGSGTDFTLTISSLQPEDFATYYCQHHYATPFTFGQGTKLEIKR ) = 3.01

Source of measurements: patent US20170022281A1
